# melting point per entry
metric: melting point

[[record]]
compound = "O=C(Cc1ccccc1F)NCCNCC(O)COc1ccc(OCCOC2CCCC2)cc1 (centres unmarked) [62g]"
metric = "melting point"
result_value = "122 to 124 °C"

[[record]]
compound = "O=C(NCCNCC(O)COc1ccc(OCCOC2CCCC2)cc1)Nc1cccc(C(F)(F)F)c1 (centres unmarked) [47r]"
metric = "melting point"
result_value = "96 to 98 °C"

[[record]]
compound = "O=C(NCCNCC(O)COc1ccc(OCCOC2CCCC2)cc1)Nc1ccccc1C(F)(F)F (centres unmarked) [47q]"
metric = "melting point"
result_value = "128 to 130 °C"

[[record]]
compound = "O=C(Cc1cccc(C(F)(F)F)c1)NCCNCC(O)COc1ccc(OCCOC2CCCC2)cc1 (centres unmarked) [62n]"
metric = "melting point"
result_value = "111.5 to 112.5 °C"

[[record]]
compound = "O=C(Cc1ccc(Cl)cc1)NCCNCC(O)COc1ccc(OCCOC2CCCC2)cc1 (centres unmarked) [62l]"
metric = "melting point"
result_value = "107 to 109 °C"


---

- target.or.system: human beta3-adrenoceptor (Homo sapiens)
- Construct: expressed in transfected cells; host or cells: CHO cells
- Sequence (P13945 whole entry): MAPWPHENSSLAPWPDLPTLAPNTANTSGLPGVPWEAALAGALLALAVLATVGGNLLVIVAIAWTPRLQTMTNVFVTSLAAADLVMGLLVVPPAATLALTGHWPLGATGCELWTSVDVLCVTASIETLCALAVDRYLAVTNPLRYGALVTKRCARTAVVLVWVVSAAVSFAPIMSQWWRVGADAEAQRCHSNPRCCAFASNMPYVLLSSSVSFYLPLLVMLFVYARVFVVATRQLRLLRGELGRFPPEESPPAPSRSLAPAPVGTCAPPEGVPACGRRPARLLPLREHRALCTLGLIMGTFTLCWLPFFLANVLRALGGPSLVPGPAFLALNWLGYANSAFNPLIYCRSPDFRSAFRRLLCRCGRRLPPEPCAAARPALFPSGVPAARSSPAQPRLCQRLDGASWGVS
- test.description: 3H-CGP12177 whole-cell binding, CHO cells expressing human beta3-adrenoceptor
- condition.label: 3H-CGP 12177 whole cell binding, log KD, mean ± s.e.mean, read-out: Beta 3 Log KD (converted)
metric: Kd (µM)

[[record]]
molecule = "O=C(NCCNCC(O)COc1ccc(OCCOCCc2ccc(F)cc2)cc1)Nc1ccc(O)cc1 (centres unmarked) [46b]"
metric = "Kd"
result_value = 1.12

[[record]]
molecule = "O=C(NCCNCC(O)COc1ccc(OCCOC2CCCC2)cc1)Nc1ccc(Br)cc1 (centres unmarked) [47p]"
metric = "Kd"
result_value = 9.33

[[record]]
molecule = "OC(CNCCOc1ccccc1)COc1ccc(OCCOC2CCCC2)cc1 (centres unmarked)"
metric = "Kd"
result_value = 4.47

[[record]]
molecule = "O=C(NCCNCC(O)COc1ccc(OCCOC2CCCC2)cc1)Nc1ccc(O)c(F)c1 (centres unmarked)"
metric = "Kd"
result_value = 10.2

[[record]]
molecule = "O=C(NCCNCC(O)COc1ccc(OCCOC2CCCC2)cc1)Nc1cccc(C(F)(F)F)c1 (centres unmarked) [47r]"
metric = "Kd"
result_value = 11.5

[[record]]
molecule = "OC(CNCCNC(=S)Nc1ccccc1)COc1ccc(OCCOC2CCCC2)cc1 (centres unmarked)"
metric = "Kd"
result_value = 7.08

[[record]]
molecule = "O=C(NCCNCC(O)COc1ccc(OCCOC2CCCC2)cc1)Nc1cccc(F)c1 (centres unmarked) [47i]"
metric = "Kd"
result_value = 18.6

[[record]]
molecule = "O=C(NCCNCC(O)COc1ccc(OCCOC2CCCC2)cc1)Nc1ccc(F)cc1 (centres unmarked) [47j]"
metric = "Kd"
result_value = 24.5


---

# melting point per entry
metric: melting point

[[record]]
compound = "Cc1ccccc1CC(=O)NCCNCC(O)COc1ccc(OCCOC2CCCC2)cc1 (stereo not drawn) [62p]"
result_value = "119 to 120.5 °C"

[[record]]
compound = "Nc1cccc(C(=O)NCCNCC(O)COc2ccc(OCCOC3CCCC3)cc2)c1 (stereo not drawn) [62c]"
result_value = "105 to 107.5 °C"

[[record]]
compound = "O=C(NCCNCC(O)COc1ccc(OCCOC2CCCC2)cc1)Nc1ccc(C(F)(F)F)cc1 (stereo not drawn) [47s]"
result_value = "134 to 136 °C"

[[record]]
compound = "O=C(NCCNCC(O)COc1ccc(OCCOC2CCCC2)cc1)Nc1ccc(F)c(F)c1 (stereo not drawn) [54a]"
result_value = "113 to 115 °C"

[[record]]
compound = "O=C(NCCNCC(O)COc1ccc(OCCOC2CCCC2)cc1)c1ccccc1F (stereo not drawn) [54g]"
result_value = "75 to 76 °C"

[[record]]
compound = "COc1cccc(CC(=O)NCCNCC(O)COc2ccc(OCCOC3CCCC3)cc2)c1 (stereo not drawn) [62s]"
result_value = "110 to 113 °C"


---

# Kd per entry
- target.or.system: beta1-adrenoceptor (Homo sapiens, UniProt P08588)
- Sequence (P08588 whole entry): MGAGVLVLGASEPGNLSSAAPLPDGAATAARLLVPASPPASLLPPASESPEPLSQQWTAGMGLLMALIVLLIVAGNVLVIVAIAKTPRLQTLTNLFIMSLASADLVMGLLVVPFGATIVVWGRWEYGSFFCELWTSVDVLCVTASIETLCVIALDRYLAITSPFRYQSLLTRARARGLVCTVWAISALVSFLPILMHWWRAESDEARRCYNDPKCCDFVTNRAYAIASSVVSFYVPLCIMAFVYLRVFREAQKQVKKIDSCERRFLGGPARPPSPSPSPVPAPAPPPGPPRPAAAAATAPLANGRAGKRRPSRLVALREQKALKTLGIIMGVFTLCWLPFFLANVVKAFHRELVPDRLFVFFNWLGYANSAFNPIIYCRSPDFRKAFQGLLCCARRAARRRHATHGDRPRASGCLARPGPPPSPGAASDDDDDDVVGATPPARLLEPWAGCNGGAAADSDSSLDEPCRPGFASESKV
- test.description: 3H-CGP12177 whole-cell binding, CHO cells expressing human beta1-adrenoceptor
- Set-up: expressed in transfected cells; host or cells: CHO cells
- condition.label: 3H-CGP 12177 whole cell binding, log KD, mean ± s.e.mean, read-out: Beta 1 Log KD (converted)
metric: Kd (nM)

[[record]]
compound = "O=C(Cc1ccc(O)cc1)NCCNCC(O)COc1ccc(OCCOCC2CC2)cc1 (stereo not drawn) [46i]"
target_or_system = "beta1-adrenoceptor (Homo sapiens, UniProt P08588)"
metric = "Kd"
unit_of_measure = "nM"
result_value = 17

[[record]]
compound = "O=C(NCCNCC(O)COc1ccc(OCCOC2CCCC2)cc1)c1ccc(O)cc1 (stereo not drawn) [54f]"
target_or_system = "beta1-adrenoceptor (Homo sapiens, UniProt P08588)"
metric = "Kd"
unit_of_measure = "nM"
result_value = 1.74

[[record]]
compound = "O=C(NCCNCC(O)COc1ccc(OCCOCC2CC2)cc1)Nc1ccc(OCc2ccccc2)cc1 (stereo not drawn) [45a]"
target_or_system = "beta1-adrenoceptor (Homo sapiens, UniProt P08588)"
metric = "Kd"
unit_of_measure = "nM"
result_value = 70.8

[[record]]
compound = "CC(C)OCCOc1ccc(OCC(O)CNCCNC(=O)Nc2ccc(O)cc2)cc1 (stereo not drawn) [46l]"
target_or_system = "beta1-adrenoceptor (Homo sapiens, UniProt P08588)"
metric = "Kd"
unit_of_measure = "nM"
result_value = 58.9

[[record]]
compound = "NC(=O)c1ccccc1OCCNCC(O)COc1ccc(OCCOC2CCCC2)cc1 (stereo not drawn) [67a]"
target_or_system = "beta1-adrenoceptor (Homo sapiens, UniProt P08588)"
metric = "Kd"
unit_of_measure = "nM"
result_value = 49

[[record]]
compound = "NC(=O)c1ccc(OCCNCC(O)COc2ccc(OCCOC3CCCC3)cc2)cc1 (stereo not drawn) [67c]"
target_or_system = "beta1-adrenoceptor (Homo sapiens, UniProt P08588)"
metric = "Kd"
unit_of_measure = "nM"
result_value = 3.31

[[record]]
compound = "O=C(NCCNCC(O)COc1ccc(OCCOC2CCCC2)cc1)Nc1ccccc1 (stereo not drawn) [47a]"
target_or_system = "beta1-adrenoceptor (Homo sapiens, UniProt P08588)"
metric = "Kd"
unit_of_measure = "nM"
result_value = 12.6

[[record]]
compound = "O=C(NCCNCC(O)COc1ccc(OCCOCC2CC2)cc1)Nc1cccc(Cl)c1 (stereo not drawn) [46e]"
target_or_system = "beta1-adrenoceptor (Homo sapiens, UniProt P08588)"
metric = "Kd"
unit_of_measure = "nM"
result_value = 29.5

[[record]]
compound = "O=C(Cc1ccc(C(F)(F)F)cc1)NCCNCC(O)COc1ccc(OCCOC2CCCC2)cc1 (stereo not drawn) [62o]"
target_or_system = "beta1-adrenoceptor (Homo sapiens, UniProt P08588)"
metric = "Kd"
unit_of_measure = "nM"
result_value = 9.12

[[record]]
compound = "O=C(Cc1ccccc1C(F)(F)F)NCCNCC(O)COc1ccc(OCCOC2CCCC2)cc1 (stereo not drawn) [62m]"
target_or_system = "beta1-adrenoceptor (Homo sapiens, UniProt P08588)"
metric = "Kd"
unit_of_measure = "nM"
result_value = 9.55

[[record]]
compound = "O=C(NCCNCC(O)COc1ccc(OCCOC2CCCC2)cc1)c1ccccc1O (stereo not drawn) [54d]"
target_or_system = "beta1-adrenoceptor (Homo sapiens, UniProt P08588)"
metric = "Kd"
unit_of_measure = "nM"
result_value = 32.4

[[record]]
compound = "O=C(Cc1ccccc1Cl)NCCNCC(O)COc1ccc(OCCOC2CCCC2)cc1 (stereo not drawn) [62j]"
target_or_system = "beta1-adrenoceptor (Homo sapiens, UniProt P08588)"
metric = "Kd"
unit_of_measure = "nM"
result_value = 3.47

[[record]]
compound = "O=C(NCCNCC(O)COc1ccc(OCCOC2CCCC2)cc1)c1ccc(F)cc1 (stereo not drawn) [54i]"
target_or_system = "beta1-adrenoceptor (Homo sapiens, UniProt P08588)"
metric = "Kd"
unit_of_measure = "nM"
result_value = 27.5

[[record]]
compound = "O=C(Cc1cccc(F)c1)NCCNCC(O)COc1ccc(OCCOC2CCCC2)cc1 (stereo not drawn) [62h]"
target_or_system = "beta1-adrenoceptor (Homo sapiens, UniProt P08588)"
metric = "Kd"
unit_of_measure = "nM"
result_value = 6.76

[[record]]
compound = "O=C(NCCNCC(O)COc1ccc(OCCOC2CCCC2)cc1)c1cccc(F)c1 (stereo not drawn) [54h]"
target_or_system = "beta1-adrenoceptor (Homo sapiens, UniProt P08588)"
metric = "Kd"
unit_of_measure = "nM"
result_value = 74.1

[[record]]
compound = "O=C(NCCNC[C@H](O)COc1ccc(OCCOC2CCCC2)cc1)Nc1cccc(Cl)c1 [(S)-47l]"
target_or_system = "beta1-adrenoceptor (Homo sapiens, UniProt P08588)"
metric = "Kd"
unit_of_measure = "nM"
result_value = 2.82

[[record]]
compound = "O=C(NCCNC[C@@H](O)COc1ccc(OCCOC2CCCC2)cc1)Nc1cccc(Cl)c1 [(R)-47l]"
target_or_system = "beta1-adrenoceptor (Homo sapiens, UniProt P08588)"
metric = "Kd"
unit_of_measure = "nM"
result_value = 186

[[record]]
compound = "Oc1ccc(OCCCNCC(O)COc2ccc(OCCOC3CCCC3)cc2)cc1 (stereo not drawn) [65f]"
target_or_system = "beta1-adrenoceptor (Homo sapiens, UniProt P08588)"
metric = "Kd"
unit_of_measure = "nM"
result_value = 34.7


These entries and their values trace back to patent US20130261178A1.
